Tested on: HCC-2998 colon
procedure_details: NCI tumour cell line growth inhibition, 48 h
measurement_type: TGI

>  <compound>
C=C[C@]1(C)CC[C@]2(C)C(CC[C@@]3(C)C2C[C@H](O)[C@H](O)[C@@]3(C)O)C1 (stereo partly specified)

>  <target_or_test_system>
HCC-2998 colon

>  <measurement_type>
TGI

>  <reported_measurement>
> 100 µM

$$$$
>  <compound>
Clc1ccc2c(Cl)ncnc2c1

>  <target_or_test_system>
HCC-2998 colon

>  <measurement_type>
TGI

>  <reported_measurement>
> 100 µM

$$$$
>  <compound>
CCOP(=O)(OCC)/C(C#N)=C\c1cccc2ccccc12

>  <target_or_test_system>
HCC-2998 colon

>  <measurement_type>
TGI

>  <reported_measurement>
> 100 µM

$$$$
>  <compound>
CC1CN=C(c2cccc(OCc3ccc(COc4cccc(C5=NCC(C)N5)c4)cc3)c2)N1 (stereo unspecified)

>  <target_or_test_system>
HCC-2998 colon

>  <measurement_type>
TGI

>  <reported_measurement>
48.4 µM

$$$$
>  <compound>
Cc1nnc2n1N=C(CC(=O)c1ccc(O)cc1O)CN2N

>  <target_or_test_system>
HCC-2998 colon

>  <measurement_type>
TGI

>  <reported_measurement>
> 100 µM

$$$$
>  <compound>
Cc1nc2c(n1Cc1ccc(Cl)cc1)C(=O)c1ccccc1C2=O

>  <target_or_test_system>
HCC-2998 colon

>  <measurement_type>
TGI

>  <reported_measurement>
> 75 µM

$$$$

* * *

Tested on: A549 NSCLC
procedure_details: NCI tumour cell line growth inhibition, 48 h

>  <compound>
CC1Cc2c(N(C)C)ncnc2N(C)c2ccc(Cl)cc21 (stereo not given)

>  <GI50>
10.7 µM

$$$$
>  <compound>
CN1CCCC1c1cccnc1.O=C(O)c1ccccc1O.O=C([O-])c1ccccc1[OH2+].O=C([O-])c1ccccc1[OH2+].O=C([O-])c1ccccc1[OH2+].[Mn+2] (stereo not given)

>  <GI50>
> 100 µM

$$$$
>  <compound>
COc1ccc2nc3ccc(OC)cc3c(SCCCN)c2c1

>  <GI50>
12.9 µM

$$$$
>  <compound>
COc1cccc(-c2nn(-c3ccccc3)cc2-c2ccnc(NCCNC(=O)Nc3ccc(Cl)c(Cl)c3)c2)c1

>  <GI50>
3.38 µM

$$$$
>  <compound>
COc1ccccc1Cn1cc2c(c1)-c1oncc1CC2

>  <GI50>
0.825 µM

$$$$

* * *

Tested on: CAKI-1 renal
procedure_details: NCI tumour cell line growth inhibition, 48 h
Where a SMILES comes first, the peptide text is derived from it. [ ]: non-standard residue; d: D form. The star is where a group is joined. ξ: configuration not given here. NMeY = CN[C@@H](Cc1ccc(O)cc1)C(=O)O; Cbz = O=C(OCc1ccccc1)*; ξA = CC(N)C(=O)O
Could you label it yes (1) if measured TGI is 10 µM or higher, and no (0) otherwise?

>  <compound>
Oc1cccc(-c2nc3ccccc3s2)c1

>  <qualitative_label>
yes (1)

$$$$
>  <compound>
COc1ccccc1Cn1cc2c(c1)-c1oncc1CC2

>  <qualitative_label>
yes (1)

$$$$
>  <compound>
CCCCCCCCCCCCCCCCOCC(CC(F)(F)P(=O)(O)O)OC(C)=O (centres undefined)

>  <qualitative_label>
yes (1)

$$$$
>  <compound>
C=C1C(=O)O[C@H]2C1[C@H](OC(=O)/C(C)=C\COC(C)=O)C[C@]1(CO1)[C@@H]1[C@H](O)[C@H]3O[C@@]3(C)[C@@H]12 (some centres undefined)

>  <qualitative_label>
yes (1)

$$$$
>  <compound>
N#Cc1c2c(c(N=[N+]=[N-])n3c1nc1ccccc13)CCCC2

>  <qualitative_label>
no (0)

$$$$
>  <compound>
COc1ccc([Se]c2ccc(OC)cc2OC)c(OC)c1

>  <qualitative_label>
yes (1)

$$$$
>  <compound>
O=C1CCSSCCC(=O)Nc2ccccc2N1

>  <qualitative_label>
yes (1)

$$$$
>  <compound>
COc1ccc(C[C@@H](C(=O)NCC(N)=O)N(C)C(=O)[C@@H]2CCCN2C(=O)[C@H](CC(C)C)NC(=O)C(C)NC(=O)OCc2ccccc2)cc1 (some centres undefined) (Cbz-[ξA]LP[NMeY](Me)G-NH2)

>  <qualitative_label>
yes (1)

$$$$
>  <compound>
COc1ccc(C2CC(c3c(C)nn(-c4ccccc4)c3-c3ccc(C)cc3O)=NN2c2ccccc2)cc1 (centres undefined)

>  <qualitative_label>
yes (1)

$$$$
>  <compound>
CC1CCC(O)C(C(O)CC2CC(=O)N(C)C(=O)C2)C1 (centres undefined)

>  <qualitative_label>
yes (1)

$$$$
>  <compound>
O=c1c(Cc2ccc(Cl)cc2)nnc2sc(-c3ccc([N+](=O)[O-])cc3)nn12

>  <qualitative_label>
yes (1)

$$$$
>  <compound>
O=CNc1cccc2c3c([nH]c12)CCCCCC3

>  <qualitative_label>
yes (1)

$$$$
>  <compound>
O=C1c2cccnc2C(=O)c2c1c(C(=O)OCCCN1CCOCC1)c1ccccn21

>  <qualitative_label>
no (0)

$$$$
>  <compound>
COc1ccc(C[C@H]2C[C@@H](O)[C@@H](C)C/C=C/Cc3cccc(O)c3C(=O)O2)cn1

>  <qualitative_label>
yes (1)

$$$$
>  <compound>
CC(C)=CCN(N=O)c1ncnc2nc[nH]c12

>  <qualitative_label>
yes (1)

$$$$
>  <compound>
COc1ccc2cccc(C(=N)c3ccc(C)c4c3CCC4)c2c1

>  <qualitative_label>
yes (1)

$$$$
>  <compound>
O=c1c2ccccc2nc(-c2ccccc2)n1NCC1(O)OCC(O)C(O)C1O (centres undefined)

>  <qualitative_label>
yes (1)

$$$$
>  <compound>
Oc1ccc(-c2c3c(nc4c2CCc2ccc(Br)cc2-4)-c2cc(Br)ccc2CC3)cc1

>  <qualitative_label>
yes (1)

$$$$
>  <compound>
Cn1c(=O)n(-c2ccc(C(C)(C)C#N)cc2)c2c3cc(-c4cnc5ccccc5c4)ccc3ncc21

>  <qualitative_label>
no (0)

$$$$
>  <compound>
Cc1ccc(NCSc2ccc(Cl)cc2)cc1

>  <qualitative_label>
yes (1)

$$$$
>  <compound>
O=C1c2ccccc2S(=O)(=O)c2ccccc21

>  <qualitative_label>
yes (1)

$$$$
>  <compound>
Oc1ccc2ccccc2c1-c1nnc(CCCCCCCCc2nnc(-c3c(O)ccc4ccccc34)o2)o1

>  <qualitative_label>
no (0)

$$$$
>  <compound>
COc1cn2c(cc1=O)COc1ccc(-c3ccccc3)cc1-2

>  <qualitative_label>
yes (1)

$$$$
